Would you mind telling me the reported pKd of each entry?
Test: Dissociation constant Kd of the compound
Assay type: physicochemical
Answer as the number alone; pKd is minus log10 of concentration in mol/L.

# get_value(readout='pKd', item= CCc1nc2ccccc2cc1C(=O)N[C@@H](C/C=C/C[C@H](NC(=O)c1cc2ccccc2nc1CC)C(=O)N1CCC[C@H]1C(=O)N[C@@H](Cc1ccccc1)C(=O)NCCCN)C(=O)N1CCC[C@H]1C(=O)N[C@@H](Cc1ccccc1)C(=O)NCCCN )
4.95

# get_value(readout='pKd', item= NC[C@@H]1O[C@H](O[C@H]2[C@@H](O)[C@H](O[C@@H]3[C@@H](O)[C@H](N)C[C@H](N)[C@H]3O[C@H]3O[C@H](CN)[C@@H](O)[C@H](O)[C@H]3N)O[C@@H]2CO)[C@H](N)[C@@H](O)[C@@H]1O )
5.59

# get_value(readout='pKd', item= CCc1nc2ccccc2cc1C(=O)N[C@@H](CCCC[C@H](NC(=O)c1cc2ccccc2nc1CC)C(=O)N1CCC[C@H]1C(=O)N[C@@H](Cc1ccccc1)C(=O)NCCCN)C(=O)N1CCC[C@H]1C(=O)N[C@@H](Cc1ccccc1)C(=O)NCCCN )
4.91

# get_value(readout='pKd', item= CCc1nc2ccccc2cc1C(=O)N[C@@H](CSSC[C@H](NC(=O)c1cc2ccccc2nc1CC)C(=O)N1CCC[C@H]1C(=O)N[C@@H](Cc1ccccc1)C(=O)NCCCN)C(=O)N1CCC[C@H]1C(=O)N[C@@H](Cc1ccccc1)C(=O)NCCCN )
5.10

# get_value(readout='pKd', item= CCc1nc2ccccc2cc1C(=O)N[C@@H](C/C=C\C[C@H](NC(=O)c1cc2ccccc2nc1CC)C(=O)N1CCC[C@H]1C(=O)N[C@@H](Cc1ccccc1)C(=O)NCCCN)C(=O)N1CCC[C@H]1C(=O)N[C@@H](Cc1ccccc1)C(=O)NCCCN )
5.33

Just for reference, ChEMBL document CHEMBL1212899 is where these values come from.
